- CONDITIONS_USED: Ebola virus entry assay, blue channel fluorescence
The source made the active and inactive calls. No rule for the calls is given here.
The categories you may choose from are y = active, n = inactive

Task: Kindly provide the recorded test outcome for the following compound: "O=c1[nH]cnc2c1ncn2[C@@H]1O[C@H](CO)[C@@H](O)[C@H]1O"
Output: n

Task: Kindly provide the recorded test outcome for the following compound: NC(=O)CCCCC1CCSS1 (configuration not stated)
Output: n

Task: Kindly provide the recorded test outcome for the following compound: "CN1C(=O)CN=C(c2ccccc2)c2cc(Cl)ccc21"
Output: y

Task: Kindly provide the recorded test outcome for the following compound: "C[C@H]1NCc2cc(-c3ccc4c(=O)c(C(=O)O)cn(C5CC5)c4c3OC(F)F)ccc21"
Output: n

Task: Kindly provide the recorded test outcome for the following compound: CC(CNC1CCCCC1)OC(=O)c1ccccc1 (configuration not stated)
Output: y

Task: Kindly provide the recorded test outcome for the following compound: "CCCOc1ccc2nc(NC(=O)OC)[nH]c2c1"
Output: y

Task: Kindly provide the recorded test outcome for the following compound: CC(Cc1ccccc1)NCc1ccccc1Cl (configuration not stated)
Output: y

Task: Kindly provide the recorded test outcome for the following compound: CCCCCOc1ccc(C2SC(=O)NC2=O)cc1OCC (configuration not stated)
Output: n

Task: Kindly provide the recorded test outcome for the following compound: "O=C(c1cc(O)c(O)c(O)c1)c1ccc(O)c(O)c1O"
Output: y

Task: Kindly provide the recorded test outcome for the following compound: "Cc1c(C)c2c(c(C)c1OC(=O)CCC(=O)OCCO)CC[C@@](C)(CCC[C@H](C)CCC[C@H](C)CCCC(C)C)O2"
Output: y

Task: Kindly provide the recorded test outcome for the following compound: "CCCCOc1ccc(CC(=O)NO)cc1"
Output: n

Task: Kindly provide the recorded test outcome for the following compound: "O=C(O)c1cn(-c2ccc(F)cc2)c2cc(N3CCNCC3)c(F)cc2c1=O"
Output: n
